max response values by entry
assay: qHTS Assay for Lipid Storage Modulators (AID 1519); conditions: Drosophila S3 cells, BODIPY lipid droplet/cell ratio, laser cytometry; measured here: lipid channel max response; cells loaded with oleic acid
Records with an inconclusive call do not appear.
Report the figure in % without appending any unit label.

// solved cases for max response follow
O=C(O)[C@@H](O)[C@@H](O)[C@@H](O)[C@@H](O)C(=O)O (tested in a mixture with another compound) = -7.78
CCOc1ccc(C(=O)c2ccc(O)c(O)c2O)cc1 = -2.36

[Q] # lookup: max response of CCC[C@H]1C[C@H](C(=O)N[C@H]([C@@H]2O[C@H](SC)[C@@H](O)[C@H](O)[C@@H]2O)[C@H](C)O)N(C)C1
[A] -10.9

[Q] # lookup: max response of CC1(C)CCCC2(C)C3C(O)CC2(C)C(O)C31 (stereo not given)
[A] -0.711

[Q] # lookup: max response of Cc1onc(-c2ccccc2Cl)c1C(=O)N[C@H]1C(=O)N2[C@H]1SC(C)(C)[C@H]2C(=O)O
[A] 7.41

[Q] # lookup: max response of CCCCCCCCCCCCCCC(C(=O)OC)C(O)(CC(=O)OC)C(=O)OC (stereo not given)
[A] -26.9

[Q] # lookup: max response of CC=C(/C(=C/C)c1ccc(O)cc1)c1ccc(O)cc1
[A] -18.3

----------
assay: qHTS Assay for Lipid Storage Modulators (AID 1519); conditions: Drosophila S3 cells, BODIPY lipid droplet/cell ratio, laser cytometry; measured here: cell count channel max response; cells loaded with oleic acid
Results filed as inconclusive are left out.
REPORTED_ENDPOINT: max response (%)
Report the figure in % without appending any unit label.

[Q] # lookup: max response of CC[C@@H]1OC(=O)[C@H](C)[C@H](O[C@@H]2C[C@](C)(OC)[C@H](O)[C@H](C)O2)[C@H](C)[C@H](O[C@@H]2O[C@@H](C)C[C@@H](N(C)C)[C@@H]2O)[C@](C)(O)C[C@H](C)C(=O)[C@H](C)[C@H](O)[C@]1(C)O
[A] 9.04

[Q] # lookup: max response of CC[C@](C)(CN(C)C)OC(=O)c1ccccc1
[A] -9.58

[Q] # lookup: max response of CCC(C)(C)C(=O)O[C@@H]1C[C@H](C)C=C2C=C[C@H](C)[C@@H](CC[C@H]3C[C@@H](O)CC(=O)O3)[C@H]21
[A] -10.9

----------
system: 7G8; assay: qHTS profiling for inhibitors of Plasmodium falciparum proliferation (AID 504749); further: nearly all actives have a fitted effect of over 60% in size; further: potency means the concentration at half of the fitted maximal effect; conditions: P. falciparum in erythrocytes, SYBR Green DNA, 72 h; series mostly up to 12.8 µM
Results filed as inconclusive are left out. Activity calls are given as the source filed them. Calls follow the shape of the dose curve; as a rule, active = well fitted inhibition curve with a large enough effect; inconclusive = small, poorly fitted or top-dose-only effect; inactive = flat fitted curve, though single readings scatter.
REPORTED_ENDPOINT: Potency

// solved cases for Potency follow
CCN[C@@H]1C[C@H](N)[C@H](O[C@H]2OC(CN)=CC[C@H]2N)[C@@H](O)[C@H]1O[C@H]1OC[C@@](C)(O)[C@@H](NC)[C@@H]1O = inactive
C=C1c2c(Cl)ccc(O)c2C(O)=C2C(=O)[C@@]3(O)C(O)=C(C(N)=O)C(=O)[C@@H](N(C)C)[C@@H]3[C@@H](O)[C@H]12 = 3160 nM (active)
COC1C=CO[C@@]2(C)Oc3c(C)c(O)c4c(O)c(c(C=NN5CCN(C)CC5)c(O)c4c3C2=O)NC(=O)/C(C)=C\C=CC(C)C(O)[C@@H](C)C(O)C(C)[C@H](OC(C)=O)C1C (stereo partly specified) = 112 nM (active)
CO[C@@H]1C[C@H](O[C@H]2[C@@H](C)[C@H](O[C@@H]3O[C@@H](C)C[C@@H](N(C)C)[C@@H]3OC(C)=O)[C@H](C)C[C@]3(CO3)C(=O)[C@H](C)[C@H](OC(C)=O)[C@H](C)[C@H](C)OC(=O)[C@@H]2C)O[C@H](C)[C@@H]1OC(C)=O = inactive
C[N+]12CCC(CC1)[C@@H](OC(=O)C(O)(c1ccccc1)c1ccccc1)C2 = inactive

Field: next compound
[Q] # lookup: Potency of CC(=O)N(C[C@@H](C)C(=O)O)c1c(I)cc(I)c(N)c1I
[A] inactive

----------
test system: ICS; assay: qHTS profiling for inhibitors of Plasmodium falciparum proliferation (AID 504749); further: nearly all actives have a fitted effect of over 60% in size; further: potency means the concentration at half of the fitted maximal effect; details: P. falciparum in erythrocytes, SYBR Green DNA, 72 h; series mostly up to 12.8 µM
Results filed as inconclusive are left out. Activity calls are given as the source filed them. Calls follow the shape of the dose curve; as a rule, active = well fitted inhibition curve with a large enough effect; inconclusive = small, poorly fitted or top-dose-only effect; inactive = flat fitted curve, though single readings scatter.
REPORTED_ENDPOINT: Potency

// solved cases for Potency follow
CCN[C@@H]1C[C@H](N)[C@H](O[C@H]2OC(CN)=CC[C@H]2N)[C@@H](O)[C@H]1O[C@H]1OC[C@@](C)(O)[C@@H](NC)[C@@H]1O = inactive
CN(C)CCCOC1C(C(O)CO)OC2OC(C)(C)O[C@@H]21 (some centres not stated) = inactive
Cn1nnnc1SCC1=C(C(=O)O)N2C(=O)[C@@H](NC(=O)[C@@H](O)c3ccccc3)[C@@H]2SC1 = inactive
COc1cc2nc(N3CCN(C(=O)[C@@H]4CCCO4)CC3)nc(N)c2cc1OC = inactive
COC1C=CO[C@@]2(C)Oc3c(C)c(O)c4c(O)c(c(C=NN5CCN(C)CC5)c(O)c4c3C2=O)NC(=O)/C(C)=C\C=CC(C)C(O)[C@@H](C)C(O)C(C)[C@H](OC(C)=O)C1C (some centres not stated) = 89.1 nM (active)
Cc1ccc(S(=O)(=O)NC(=O)NN2C[C@H]3CCC[C@@H]3C2)cc1 = inactive

Field: next compound
[Q] # lookup: Potency of CCOC(=O)Oc1c(OC)cc(C(=O)O[C@H]2C[C@H]3CN4CCc5c([nH]c6cc(OC)ccc56)[C@@H]4C[C@H]3[C@@H](C(=O)OC)[C@@H]2OC)cc1OC
[A] 2820 nM (active)

----------
test system: PC15; assay: qHTS profiling for inhibitors of Plasmodium falciparum proliferation (AID 504749); further: nearly all actives have a fitted effect of over 60% in size; settings: P. falciparum in erythrocytes, SYBR Green DNA, 72 h; series mostly up to 12.8 µM
Results filed as inconclusive are left out. Calls of active or inactive are those of the source. Calls come from the whole dose curve; as a rule, active = well fitted inhibition curve with a large enough effect; inconclusive = small, poorly fitted or top-dose-only effect; inactive = flat fitted curve, though single readings scatter.
Hi there, use one of these labels in your reply, thanks! yes (1) (active), no (0) (inactive)

Please review the entries below; each comes with its answer.
CC1(C)O[C@@H]2C[C@H]3[C@H]4C[C@H](F)C5=CC(=O)CC[C@]5(C)[C@@H]4[C@H](O)C[C@]3(C)[C@]2(C(=O)CO)O1 = no (0)
CC1CCC(C(C)C)C(=O)C1 (centres undefined) = no (0)
COc1c(O[C@H]2O[C@@H](CO)[C@@H](O)[C@@H](O)[C@@H]2O)cc2c(c1OC)-c1ccc(SC)c(=O)cc1[C@H](NC(C)=O)CC2 = no (0)
C[C@H](N[C@@H](C)COc1ccccc1)[C@H](O)c1ccc(O)cc1 = no (0)
C=Cc1c(C)c2cc3nc(cc4[nH]c(cc5nc(cc1[nH]2)C(C)=C5CCC(=O)O)c(CCC(=O)OC)c4C)[C@@]1(C)C3=CC=C(C(=O)OC)[C@H]1C(=O)OC (tested in a mixture with another compound) = yes (1)
COc1ccc(CC(N)C(=O)NC2C(CO)OC(n3cnc4c(N(C)C)ncnc43)C2O)cc1 (centres undefined) = yes (1)
C/C1=C2N=C(/C=C3N=C(/C(C)=C4\[N-]C(C)(C5N=C1C(C)(CCC(=O)NCC(C)OP(=O)([O-])O[C@H]1C(O)C(n6cnc7cc(C)c(C)cc76)O[C@@H]1CO)C5CC(N)=O)C(C)(CC(N)=O)C4CCC(N)=O)C(C)(CC(N)=O)C\3CCC(N)=O)C(C)(C)C/2CCC(N)=O.[CH2-]C1OC(n2cnc3c(N)ncnc32)C(O)C1O.[Co] (some centres undefined) = no (0)
C[C@@]12CC[C@H]3[C@@H](CCC4=CC(=O)CC[C@]43C)[C@H]1CC[C@H]2C(=O)CO = no (0)

[Q] How was CC(C)Oc1ccc2c(=O)cc(-c3ccccc3)oc2c1 classified in this test?
[A] no (0)

[Q] How was NC(=O)c1cc[n+](CC2=C(C(=O)[O-])N3C(=O)[C@@H](NC(=O)Cc4cccs4)[C@@H]3SC2)cc1 classified in this test?
[A] no (0)

[Q] How was CN[C@H]1[C@@H](O)[C@@H](NC)[C@@H]2O[C@@]3(O)C(=O)C[C@@H](C)O[C@H]3O[C@H]2[C@H]1O classified in this test?
[A] no (0)

[Q] How was CNC1CC(N)[C@H](O)[C@@H](O[C@@H]2OC(CO)C3OC4(OC(C(N)CO)C(O)C(O)C4O)O[C@@H]3[C@H]2O)C1O (some centres undefined) classified in this test?
[A] no (0)

[Q] How was O=C1OC(CO)C(O)C(O)C1O (centres undefined) classified in this test?
[A] no (0)

[Q] How was CCC(CCC(C)C1CCC2C3CC=C4CC(O)CC[C@@]4(C)C3CC[C@@]12C)C(C)C (some centres undefined) classified in this test?
[A] no (0)

[Q] How was CCC1OC(=O)C(C)[C@@H](O[C@H]2C[C@@](C)(OC)C(O)C(C)O2)C(C)[C@@H](O[C@@H]2OC(C)CC(N(C)C)C2O)[C@@](C)(O)CC(C)C(=O)[C@@H](C)C(O)[C@]1(C)O (some centres undefined) classified in this test?
[A] no (0)

[Q] How was NC(CCC(=O)N[C@@H](CS)C(=O)NCC(=O)O)C(=O)O (some centres undefined) classified in this test?
[A] yes (1)

[Q] How was CN1CCN([C@@H](c2ccccc2)c2ccc(Cl)cc2)CC1 classified in this test?
[A] no (0)

[Q] How was CCN(CCCCOC(=O)c1ccc(OC)c(OC)c1)[C@@H](C)Cc1ccc(OC)cc1 classified in this test?
[A] no (0)

[Q] How was CC(=O)[C@@H]1CC[C@@H]2[C@@H]3C[C@H](C)C4=CC(=O)CC[C@@]4(C)[C@H]3[C@H](O)C[C@]21C classified in this test?
[A] no (0)

[Q] How was O=C1O[C@@H]([C@@H](O)CO)[C@@H](O)[C@H]1O classified in this test?
[A] no (0)

[Q] How was O=C(Nc1ccccc1)OC[C@H](CN1CCCCC1)OC(=O)Nc1ccccc1 classified in this test?
[A] no (0)

[Q] How was COc1ccc(-c2cc(=O)c3c(O)cc(O[C@H]4OC(COC5OC(C)C(O)C(O)[C@H]5O)C(O)C(O)C4O)cc3o2)cc1O (some centres undefined) classified in this test?
[A] no (0)

[Q] How was NC[C@@H]1O[C@H](O[C@H]2[C@H](O)[C@H](O[C@@H]3O[C@H](CO)[C@@H](O)[C@H](N)[C@@H]3O)[C@@H](N)C[C@H]2N)[C@@H](O)[C@H](O)[C@@H]1O classified in this test?
[A] no (0)
